Would you mind telling me the reported %Inh of each entry?
Test system: AAK1
condition.set: concentration: 1 μM, replicates: in singlicate; n = 1;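 also: KINOMEscan kinase panel screen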
One number for each entry, in %.

- CCc1ccc(-c2ccc3c(c2)-c2nn(C)cc2S(=O)(=O)N3C)cc1: 19
- O=c1cc(N2CCOCC2)nc2n(Cc3ccc(F)c(Cl)c3)ccn12 [GSK2297099]: 24
- Nc1n[nH]c2nnc(-c3ccccc3)c(-c3ccccc3)c12 [GW554060]: 0
- COc1cccc(C2=C(N(C)c3ccccc3)C(=O)NC2=O)c1 [SB-334865]: 0

Can you give me %Inh for all of these, one by one?
1. Nc1n[nH]c2ncc(-c3ccccc3)cc12 [SB-517081]
2. O=C(Nc1n[nH]c2nc(-c3ccccc3)c(Br)cc12)C1CC1 [SB-708998]
3. COc1ccc(CNC(=O)NC2CCN(c3ccnc(Nc4ccc(F)cc4)n3)C2)cc1 (stereo not shown) [GSK1379706]

Resp:
36
8
32

###

Would you mind telling me the reported %Inh of each entry?
System: CAMK2B
condition.set: concentration: 1 μM, replicates: in singlicate; n = 1
Numbers only, in %.

• Nc1ncnc2c1ncn2-c1ccc(Cl)cc1 = 0

Can you give me %Inh for all of these, one by one?
1. COc1cc2ncn(-c3cc(OCc4ccncc4)c(C(N)=O)s3)c2cc1OC
2. COc1cc(Nc2nccc(N3CCC(NC(=O)C(C)c4ccc(Cl)cc4)C3)n2)cc(OC)c1OC (stereo not drawn)
3. Cn1c(=O)c(F)c(Nc2ccc(I)cc2F)c2c(=O)n(OC[C@H](O)CO)cnc21

Resp:
0
0
12

Can you give me %Inh for all of these, one by one?
1. COc1cc2ncn(-c3cc(OCc4ccncc4Br)c(C(N)=O)s3)c2cc1OC
2. COc1ccc(-c2cc3c(C)nc(N)nc3n([C@H]3CC[C@H](OCCO)CC3)c2=O)cn1

Resp:
1. 46
2. 0

###

System: YSK4
Construct: gene MAP3K19
condition.set: concentration: 1 μM, replicates: in singlicate; n = 1
Mark NO for %Inh values under 30%, and YES for everything at or above.

Here's what some known entries look like.
- CN(C)c1cc(-c2ccc3c(N)n[nH]c3c2)nc(N)n1 [GSK2219329]: NO
- CCCC(=O)Nc1n[nH]c2ncc(-c3cccc4ccccc34)cc12 [SB-642057]: YES
- CCn1c(-c2ccoc2)nc2cnccc21 [SB-733887]: YES
- CCn1c(-c2nonc2N)nc2ccccc21 [SB-693162/GW549034]: YES

Req: Is %Inh for CC(C)(C)c1ccc(C(=O)Nc2cn3cc(-c4ccccc4)ccc3n2)cc1 at or above 30%?
Resp: NO

Req: Is %Inh for Cc1nnc(-c2ccc(C)c(-c3ccc(C(=O)O)cc3)c2)o1 [GW608005] at or above 30%?
Resp: NO

Req: Is %Inh for Nc1n[nH]c2ncc(-c3ccccc3)cc12 [SB-517081] at or above 30%?
Resp: YES

Req: Is %Inh for CN1C(=O)C(Nc2ccccc2)=C(c2ccccc2)C1=O [SB-300079] at or above 30%?
Resp: NO

Req: Is %Inh for CCS(=O)(=O)c1ccc(OC)c(Nc2ncc(-c3ccc(F)cc3)o2)c1.Cl [GW591947] at or above 30%?
Resp: NO

Req: Is %Inh for COc1cccc(C2=C(N(C)c3ccccc3)C(=O)NC2=O)c1 [SB-334865] at or above 30%?
Resp: YES

Req: Is %Inh for O=C(Nc1n[nH]c2nc(-c3ccccc3)c(Cl)cc12)C1CC1 [SB-734909] at or above 30%?
Resp: YES

Req: Is %Inh for Nc1ncnc2c1ncn2-c1ccc(Cl)cc1 [AH2635] at or above 30%?
Resp: NO
